meta.source: BindingDB's records for doi:10.1021/jm00098a005

Please respond with reported IC50 for every item in the list.
Assay: Compound was evaluated for binding affinity towards 5-hydroxytryptamine 1C receptor in pig choroid plexus using [3H]mesulergine as radioligand
Answers are plain numbers, in nM.

What value of IC50 has been reported for the following molecule? `CN(C)CCc1c[nH]c2ccc3c(c12)CCCO3` 150

What value of measured IC50 is listed for `CN(C)CCc1c[nH]c2cc3c(cc12)OCCC3` ? 2500

// returns reported IC50 for input `Cn1cc(CCN)c2c3c(ccc21)OCCC3` 100

Return reported IC50; argument: `NCCc1c[nH]c2ccc3c(c12)CCCO3` 41

Others:
Item `CN(C)CCc1cn(C)c2ccc3c(c12)CCCO3` has what recorded IC50? 100
